Attribute: pKd
Target: T1, recombinant His-tagged human tryptase beta 1 monomer (human, UniProt Q15661 31-275)
T1 construct: also called His6-tagged tryptase monomer; human tryptase b1 monomer
T1 sequence (Q15661 other isoform, or with tags, fused parts or gaps): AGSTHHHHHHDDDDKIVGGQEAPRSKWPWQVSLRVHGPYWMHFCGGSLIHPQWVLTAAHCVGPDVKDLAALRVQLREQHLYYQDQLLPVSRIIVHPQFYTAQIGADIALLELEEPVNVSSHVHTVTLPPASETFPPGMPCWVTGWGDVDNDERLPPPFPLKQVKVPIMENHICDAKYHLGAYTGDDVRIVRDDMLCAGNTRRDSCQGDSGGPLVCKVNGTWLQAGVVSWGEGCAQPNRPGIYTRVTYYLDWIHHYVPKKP
Assay: SPR (BIAcore T200); IgG1 captured by anti-human Fc, His-tagged monomer injected
The meaning of pKd here: minus log10 of the concentration in molar units.

// worked examples, pKd included
1. huE104.v5 IgG1 (antibody, V domains shown) VH: EVQLVESGPGLVKPSETLSLTCTVSRFSLIGYAITWIRQPPGKGLEWIGGISSAATTFYSSWAKSRVTISVDTSKNQFSLKLSSVTAADTAVYYCARDPRGYGAALDRLDLWGQGTLVTVSS VL: DAQLTQSPSSLSASVGDRVTITCQSIKSVYNNRLGWYQQKPGKPPKLLIYETSILTSGVPSRFSGSGSETDFTLTISSLQPEDFATYFCAGGFDRSGDTTFGQGTKVEIK; 9.74
2. hu31A.v2 IgG1 (antibody, V domains shown, also called v2 (of hu31A)) VH: EVQLVESGGGLVQPGGSLRLSCAASGFTFSDYGMVWVRQAPGKGLEWVGFISSGSSTVYYADTMKGRFTISRDNSKNTLYLQMNSLRAEDTAVVYCARRDNYDWYFDVWGQGTLVTVSS VL: DIQMTQSPSSLSASVGDRVTITCSASSSVTYMYWYQQKPGKSPKPWIYRTSDLASGVPSRFSGSGSGTDFTLTISSLQPEDFATYYCQHYHSYPLTFGQGTKVEIK; 9.13

In the following, a different binder is considered.
Quick one: pKd for hu31A.v4 IgG1 (antibody, V domains shown, also called v4 (of hu31A)) VH: EVQLVESGGGLVQPGGSLRLSCAASGFTFSDYGMVWVRQAPGKGLEWVAFISSGSSTVYYADTMKGRFTISRDNSKNTLYLQMNSLRAEDTAVVYCARRDNYDWYFDVWGQGTLVTVSS VL: DIQMTQSPSSLSASVGDRVTITCSASSSVTYMYWYQQKPGKAPKLLIYRTSDLASGVPSRFSGSGSGTDFTLTISSLQPEDFATYYCQHYHSYPLTFGQGTKVEIK ?
7.93
